Origin of measurements: patent US20030037355

target: ZFPm4 six-finger zinc finger protein (Sp1C framework) (artificial); test: ELISA, 15.5 ug/ml protein, non-target; settings: tags: MBP fusion (pMAL-C2), E. coli; label: 5'-biotin; hairpin
Sequence (chain, as listed by the source): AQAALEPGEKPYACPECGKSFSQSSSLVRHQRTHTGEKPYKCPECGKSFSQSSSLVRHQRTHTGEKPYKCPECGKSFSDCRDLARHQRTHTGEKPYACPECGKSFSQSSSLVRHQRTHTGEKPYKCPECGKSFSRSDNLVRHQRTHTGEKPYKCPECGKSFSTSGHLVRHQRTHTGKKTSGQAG
Measured Metric: binding signal (fold over no oligo)
Respond numerically; units are fold over no oligo and should not be typed.

Known binding signal results, listed for orientation:
GGACCCACCGCGTCCCCTCCGGGTTTTCCCGGAGGGGACGCGGTGGGTCC (dsDNA) [B3c2] : 5
GGCACTGCGGCTCCGGCCCCGGGTTTTCCCGGGGCCGGAGCCGCAGTGCC (dsDNA) [e2c-g] : 5

IN: Dear colleague, I am looking for the recorded binding signal of the following binder: GGTTCTACCCCTCCCACCGCGGGTTTTCCCGCGGTGGGAGGGGTAGAACC (dsDNA) [NRI-1]
OUT: 5

IN: Now the same for GGGGCAGCCCCCACGGCGCCGGGTTTTCCCGGCGCCGTGGGGGCTGCCCC (dsDNA) [hHD-II]
OUT: 2

IN: What about this binder? GGGACACCCCCAACCCCGCCGGGTTTTCCCGGCGGGGTTGGGGGTGTCCC (dsDNA) [c5c1-g]
OUT: 3

IN: Next binder up: GGTGCGGCGACTGCAGCAGCGGGTTTTCCCGCTGCTGCAGTCGCCGCACC (dsDNA) [NRI-2]
OUT: 3

IN: Moving on to GGCTCTGCTCATCCCACTACGGGTTTTCCCGTAGTGGGATGAGCAGAGCC (dsDNA) [c5p3-g]
OUT: 2

IN: Next binder: GGGGCCCCGCCTCCGCCGGCGGGTTTTCCCGCCGGCGGAGGCGGGGCCCC (dsDNA) [hHD-I]
OUT: 2
